FYI, the data here is from PubChem BioAssay.

Hi there, I'd appreciate the recorded normalised cell number for every entry that follows.
test: differential killing of epithelial or mesenchymal cells, primary screen, imaging, PC-3E GFP, TEM4-18 mCherry, co-culture (AID 1345086); details: imaging cell counts, measured here: epithelial PC-3E GFP cell survival, at 1 µM;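 also: cells exposed to compound for 72 h before imaging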
Answers are plain numbers.

These recorded examples may help you get a feel for the data.
O=C(O)c1cc(O)c2c(c1)[C@@H]([C@H]1c3cc(C(=O)O)cc(O)c3C(=O)c3c(O[C@H]4O[C@H](CO)[C@@H](O)[C@H](O)[C@H]4O)cccc31)c1cccc(O[C@H]3O[C@H](CO)[C@@H](O)[C@H](O)[C@H]3O)c1C2=O    1.22
OC[C@H]1O[C@@H](O[C@H]2[C@H](O)[C@@H](O)[C@@H](O)O[C@@H]2CO)[C@H](O)[C@@H](O)[C@@H]1O    0.89
COc1c(O)cc2c(c1O)[C@H]1O[C@H](CO)[C@@H](O)[C@H](O)[C@@H]1OC2=O    1.23
CC[C@H](O)c1oc(=O)cc(OC)c1C    1.01
O=C(NCC1O[C@@H](OC2C(NC(=O)c3ccccc3)C[C@@H](NC(=O)c3ccccc3)[C@H](OC3OC(COS(=O)(=O)O)[C@@H](OS(=O)(=O)O)[C@H](NC(=O)c4ccccc4)[C@H]3OS(=O)(=O)O)[C@H]2OS(=O)(=O)O)[C@H](OS(=O)(=O)O)[C@@H](OS(=O)(=O)O)C1OS(=O)(=O)O)c1ccccc1 (some centres not stated)    0.96

Working through the 3 molecules below one at a time, give normalised cell number for each.
1. CC1(C)OC(=O)C(OCC2CC2)=C1c1ccc(S(C)(=O)=O)cc1
2. CC(C)(c1ccc(O)cc1)c1ccc(O)cc1
3. CC(=O)OCC(=O)[C@@]1(O)CCC2C3CCC4=CC(=O)C=C[C@]4(C)[C@@]3(Cl)[C@@H](Cl)C[C@@]21C (some centres not stated)

OUT:
[1.02, 1.17, 1.2]

###

experiment: sensitizers of A549 cells to miR-34 induction, primary screen, imaging, A549 dox-inducible miR-34, nuclei and caspase counts (AID 1347080); settings: A549 miR-34 inducible, Hoechst nuclei count, 48 h; measured here: total cells with miR-34 induction; stronger effect = lower value
OBSERVABLE: cell count
Give bare numbers.

Here's what some known entries look like.
CCCCC(=O)OC1(C(=O)CO)CCC2C3CCC4=CC(=O)CCC4(C)C3C(O)CC21C (stereo unspecified)    6880
FC(F)(F)c1ccc(/C=C/c2nc(COc3ccc(CCCCn4ccnn4)cc3)co2)cc1    4070
CN1[C@@H]2CCC[C@H]1CC(NC(=O)c1nn(C)c3ccccc13)C2 (stereo partly specified)    10200
CO[C@H]1/C=C/O[C@@]2(C)Oc3c(C)c(O)c4c(O)c(c(C=NN5CCN(C)CC5)c(O)c4c3C2=O)NC(=O)/C(C)=C\C=C\[C@H](C)[C@H](O)[C@@H](C)[C@@H](O)[C@@H](C)[C@H](OC(C)=O)[C@@H]1C    9180
CCCCC(CC)CCC(CC(C)C)OS(=O)(=O)O (stereo unspecified)    8490
N#C/C(=C(/N)Sc1ccc(N)cc1)c1ccccc1C(F)(F)F    5510
OC[C@H]1OC([S-])[C@H](O)[C@@H](O)[C@@H]1O.[Au+] (stereo partly specified)    9290
C[C@H]1CC2C3CCC4=CC(=O)C=C[C@]4(C)[C@@]3(F)[C@@H](O)C[C@]2(C)[C@@]1(O)C(=O)COP(=O)(O)O (stereo partly specified)    6310

Go through the items and report each one's cell count.
1. CC1(C)C2CCC1(CS(=O)(=O)O)C(=O)/C2=C\c1ccc(/C=C2\C(=O)C3(CS(=O)(=O)O)CCC2C3(C)C)cc1
2. C#C[C@]1(OC(C)=O)CCC2C3CCC4=C/C(=N/O)CCC4C3CC[C@@]21CC (stereo partly specified)
3. O=C(O)C1=C(CSc2nnnn2CS(=O)(=O)O)CS[C@@H]2C(NC(=O)[C@H](O)c3ccccc3)C(=O)N12 (stereo partly specified)
4. CCC(C)(C)N=C(NC#N)Nc1cccnc1
5. CC(=O)Nc1ccc(OC(C)=O)cc1

OUT:
1: 8090; 2: 11600; 3: 10700; 4: 9920; 5: 8510
